# Tested on: Neuro-2a
# Test method notes: neurite formation score, plate-normalized to DMSO control mean 5.04 (score (0-8 scale)); higher = more or longer neurites
# Conditions: 1 µM
Given measured neurite formation score, output criterion met if it is greater than or equal to 5 and criterion not met if not.

As a guide, the following entries are already answered.
Compound | Qualitative label
O=C(c1ccc(/C=C/c2n[nH]c3ccccc23)cc1)N1CCNCC1 | criterion met
COc1cc2nccc(Oc3ccc(NC(=O)Nc4ccc(F)cc4F)c(F)c3)c2cc1OC | criterion met
COc1cc(N2CCOCC2)ccc1Nc1ncc(F)c(Nc2ccccc2NS(C)(=O)=O)n1 | criterion not met
COc1ccc(S(=O)(=O)N(CCO)c2ccccc2CN(C)C/C=C/c2ccc(Cl)cc2)cc1 [KN-93 Phosphate] | criterion not met
NC(=O)Nc1cc(-c2cccc(F)c2)sc1C(=O)N[C@H]1CCCNC1 | criterion not met
CN1CCC(Nc2nc(Nc3ccc(Oc4ccccc4)cc3)c3c(=O)[nH]cc(Br)c3n2)CC1 | criterion not met

Exercise: Say whether COc1cc2nccc(Oc3ccc(NC(=O)NC4CC4)c(Cl)c3)c2cc1C(N)=O [Lenvatinib (E7080)] shows neurite formation score of 5 or more.
Key: criterion not met

---

# System: Neuro-2a
# Test method notes: neurite formation score, plate-normalized to DMSO control mean 5.04 (score (0-8 scale)); higher = more or longer neurites
# Conditions: 0.1 µM
Structures can show the parent of a compound that is named as a salt.
Parameter: neurite formation score

The examples below pair each entry with its known result.
Molecule | neurite formation score
COc1nccc(-c2c(-c3ccc(F)cc3)ncn2C2CCC(O)CC2)n1 (stereo not given) | 5.25
C#Cc1cccc(Nc2ncnc3cc(OC)c(OCCCCCCC(=O)NO)cc23)c1 | 4.25
CCOc1ccc(Nc2ccc(/C(=C3C=C/C(=[N+](/CC)Cc4cccc(S(=O)(=O)[O-])c4)C=C/3C)c3ccc(N(CC)Cc4cccc(S(=O)(=O)O)c4)cc3C)cc2)cc1 [Brilliant Blue G] | 2.08

Item: `Oc1ccc2ccccc2c1SSc1c(O)ccc2ccccc12` | neurite formation score: 5.42

Item: `Cc1ccc(NC(=O)c2cccc(N(C)C)c2)cc1NC(=O)c1ccc(O)cc1` | neurite formation score: 4.58

Item: `C=CC(=O)Nc1cc(Nc2nccc(-c3cn(C)c4ccccc34)n2)c(OC)cc1N(C)CCN(C)C` | neurite formation score: 3.76

Item: `O=C1NC(=NCc2cccs2)S/C1=C\c1ccc2ncccc2c1` | neurite formation score: 4.25

Item: `C=CC(=O)Nc1ccc(CN2C(=O)N(c3cc(OC)cc(OC)c3)Cc3cnc(Nc4ccc(N5CCN(C)CC5)cc4)nc32)cc1` | neurite formation score: 4.25

Item: `CN(C)c1nc2c(Br)c(Br)c(Br)c(Br)c2[nH]1` | neurite formation score: 5.25

Item: `COc1ccc(-c2cc3c(C)nc(N)nc3n([C@H]3CC[C@H](OCCO)CC3)c2=O)cn1` | neurite formation score: 4.92

Item: Cc1cn(-c2cc(NC(=O)c3ccc(C)c(Nc4nccc(-c5cccnc5)n4)c3)cc(C(F)(F)F)c2)cn1 [Nilotinib(AMN-107)] | neurite formation score: 5.21

Item: `C[C@@H]1CCNC(=O)c2cc3ccc(C(=O)Nc4nc5ccccc5n4CCCN(C)C)cc3n21` | neurite formation score: 4.92

Item: `O=C1Nc2ccc(I)cc2/C1=C/c1cc(Br)c(O)c(Br)c1` | neurite formation score: 4.25

Item: `N#Cc1c(Oc2ccc(F)c(NC(=O)Cc3cccc(C(F)(F)F)c3)c2)ccc2nc(NC(=O)C3CC3)sc12` | neurite formation score: 4.54

Item: `CCNC(=O)Nc1ccc(-c2nc3c(c(N4CCOC[C@@H]4C)n2)CCN(C2COC2)C3)cc1` | neurite formation score: 3.71

Item: `COc1cc2nccc(Oc3ccc(NC(=O)Nc4ccc(F)cc4F)c(F)c3)c2cc1OC` | neurite formation score: 4.38

Item: `Cn1cc(C2=C(c3ccc(Cl)cc3Cl)C(=O)NC2=O)c2ccccc21` | neurite formation score: 4.76

Item: `CCN1CCN(Cc2ccc(-c3cc4c(N[C@H](C)c5ccccc5)ncnc4[nH]3)cc2)CC1` | neurite formation score: 4.54

Item: O=C(Cc1ccc(-c2ccc(OCCN3CCOCC3)cc2)cn1)NCc1ccccc1 [KX2-391 dihydrochloride] | neurite formation score: 0.584

Item: COc1cc(CCc2cc(NC(=O)c3ccc(N4CC(C)NC(C)C4)cc3)n[nH]2)cc(OC)c1 (stereo not given) | neurite formation score: 4.21

Item: `O=C(O)c1ccc(Nc2ncc3c(n2)-c2ccc(Cl)cc2C(c2c(F)cccc2F)=NC3)cc1` | neurite formation score: 2.76

Item: `Cc1nc(NC(=O)N2CCC[C@H]2C(N)=O)sc1-c1ccnc(C(C)(C)C(F)(F)F)c1` | neurite formation score: 5.21

Item: `COc1cc(Nc2ncc(F)c(Nc3ccc4c(n3)NC(=O)C(C)(C)O4)n2)cc(OC)c1OC` | neurite formation score: 4.58

Item: Cc1ccc(NC(=O)c2ccc(CN3CCN(C)CC3)cc2)cc1Nc1nccc(-c2cccnc2)n1 [Imatinib (STI571)] | neurite formation score: 1.42
